Where these numbers come from: the array DNA melting data of Ke et al. (doi:10.1101/2024.01.08.574731)

test: melting temperature; fluorescence melt of hairpins on a sequencing array, two-state fit, raised by 9.35 °C to match UV melts; conditions: sodium 0.088 M
PROPERTY_LABEL: Tm (°C)
Lab book: enter the figure in °C, no units written.

In: What value of Tm has been recorded for this entry: GAAACGAAAGTTTC (((((....)))))
Out: 53.4

In: And for GGCCGGCCGAAAGGCGCC (((..(((....)))))) ?
Out: 57.3

In: Note, next up: GATCCAATAATGGATC ((((((....))))))
Out: 47.5

In: Param item: GATCCTCAACAGGATC ((((((....))))))
Out: 48.7

In: Entry GTCTACCGAAAGGTCGAC (((.(((....))).))) please
Out: 48.7

In: Another sequence to check: GGCTACGGAAACGCAGCC ((((.((....)).))))
Out: 52.6

In: And the next one, GTGCACGAAAGTGATCAC ((((((....)))..))) ?
Out: 37.4

In: Follow-up item: GGGAAGGGAAACCTTCTC (.(((((....))))).)
Out: 46.6

In: What about this sequence? GATCAAATGTTGATC ((((((...))))))
Out: 41.2

In: For GGTGAGCGAAAGCTGACC (((.(((....))).))) then?
Out: 55

In: Param item: GATTACGAAAGTAATATC ((((((....)))..)))
Out: 38.6

In: Please do the same for GTGGGTCGAAAGACACAC (((.(((....))).))) as well.
Out: 63.5

In: And GCCGTGCCGAAAGGCGGC (((..(((....)))))) ?
Out: 66.8

In: Please do the same for GGTTGAGGAAACTTAACC ((((.((....)).)))) as well.
Out: 39.8

In: Repeat for the following sequence: GAGCGCGAAAGCGCCTC ((((((....))).)))
Out: 58.1

In: Okay, and GATCCACTATTGGATC ((((((....)))))) ?
Out: 49.8

In: Proceed to GATCGGCACCCGATC ((((((...))))))
Out: 55

In: What about GCCGAGCGAAAGCACAGC ((.(.((....)).).)) ?
Out: 40.1

In: What would you report for GGACGCACGAAAGTGTCC (((..(((....)))))) ?
Out: 47

In: Okay, and GTTTTTGGAAACAAAAGC (.(((((....))))).) ?
Out: 35.6

In: Next up: GGAACTGAAAAGTTCC ((((((....))))))
Out: 56.4

In: Moving on to GCGGAGCGAAAGCACGGC ((.(.((....)).).))
Out: 45.5

In: Now consider GATCCTATGGAGGATC ((((((....)))))) and answer again.
Out: 50.6

In: Let us now turn to GCGTTCAAACGC ((((....))))
Out: 53.1

In: Next sequence up: GGACCGCCGAAAGGCTCC (((..(((....))))))
Out: 32.2

In: Same again, this time with GACTGTGGAAACACGGTC (((.(((....))).)))
Out: 52.2

In: Next up: GTGATTGGAAACAACCAC (((.(((....))).)))
Out: 37.5

In: Entry GTTGGTCGAAAGACGAAC (((.(((....))).))) please
Out: 48.1

In: Then what about the sequence GCAAACGAAAGTTGTTGC ((((((....)))..))) ?
Out: 32.9

In: And the next one, CGAACGGAAACGTGGTCG ((((((....)))..))) ?
Out: 32.7

In: Would you mind doing GGAGATACGAAAGTATCC (((..(((....)))))) as well?
Out: 40.9

In: Another sequence to look at: CGAGAGAAATCTCG (((((....)))))
Out: 47.5

In: Another sequence: GTAGGAGGAAACTCCTGC (.(((((....))))).)
Out: 46.8

In: Can you handle GCAGCCACGAAAGTGTGC (((..(((....)))))) next?
Out: 40.2

In: Next: GTTTGAGGAAACTCAAAC (((((((....)))))))
Out: 55.8

In: What do we get for GCGCAGCGAAAGCTCTGC ((..(((....)))..)) ?
Out: 38.5

In: // repeat for GCCGTCGAAAGACCGGGC ((((((....)))..))) and report
Out: 50.3

In: Same question, GAGATGGAAACATCTC ((((((....)))))) this time
Out: 53.5

In: Lookup GATCAAATGATTGATC ((((((....))))))
Out: 35.8

In: Can you check GGACATGGAAACATGTTC (.(((((....))))).) next?
Out: 47.4

In: Can you check GATGGACGAAAGTCTATC (((.(((....))).))) next?
Out: 52.9

In: Next sequence up: GTACCGCGAAAGCGATAC (((.(((....))).)))
Out: 48.5

In: Next up: GATCTAGGGCTAGATC ((((((....))))))
Out: 43.5

In: What do you have for GATGCACGAAAGTGAATC (((.(((....))).))) ?
Out: 50.8

In: # repeat for GATGGCCGAAAGGCATC (((.(((....))))))
Out: 49.9

In: Item: GCCGAGCGAAAGCGCAGC ((.(.((....)).).))
Out: 49.4

In: How about this sequence: GATGTCGGAAACGACGTC ((.((((....)))).))
Out: 54.1

In: Moving on to GATCTGTGCACAGATC ((((((....))))))
Out: 57.9

In: Item: GGGGTCGAAAGACTCCC ((((((....))).)))
Out: 57

In: Request: GCTCGCCCGAAAGGGAGC (((..(((....))))))
Out: 48.4
